Test system: SNB-75 CNS
Test: NCI-60 one-dose screen, 48 h (100 = growth as untreated, 0 = no growth, -100 = all killed)
Conditions: 10 µM unless noted
Compounds without any hit were thinned out: in the full panel of roughly 83,000, 20% have a hit.

compound | test_system | u | growth
C=CCCCCOc1cccc(/C=C2\N=C3SCCCN3C2=O)c1 | SNB-75 CNS | % | 91.1
CCNCCCn1c2c(c3ccc(Cl)cc3c1=O)C(=O)c1cc(OC)cnc1-2 | SNB-75 CNS | % | 19.4
Clc1ccccc1CNc1c2ccccc2nc2ccccc12 | SNB-75 CNS | % | 43.1
COc1cnc2c(c1)C(=O)c1c-2n(CCCN2CCNCC2)c(=O)c2cc(Cl)ccc12 | SNB-75 CNS | % | 39.7
CC(C)CCSc1nc(-c2ccc(F)cc2)c(C#N)c(N2CCCCC2)n1 | SNB-75 CNS | % | 94.2
COc1ccc(-c2cc(C(=O)Nc3ccc(C)cc3)nc3[nH]c(=O)sc23)cc1 | SNB-75 CNS | % | 102
C#CCNc1nc(NCCNC(=O)CCl)nc(N(C)CCCCc2ccccc2)n1 | SNB-75 CNS | % | 104
Cc1cc(-c2ccccc2)on1 | SNB-75 CNS | % | 99.2
COc1ccc(C(=O)OC2C(OC3C(O)COC(O[C@H]4C[C@H]5[C@@H]6CC=C7C[C@@H](O)CC[C@]7(C)[C@H]6CC[C@]5(C)[C@H]4[C@H](C)C(=O)CCC(C)C)C3OC(C)=O)OCC(O)C2O)cc1 (stereo partly specified) | SNB-75 CNS | % | -9.67
COc1cc(C2C(C#N)=C(N)Oc3cc4c(cc32)OCO4)cc2c1OCO2 (stereo unspecified) | SNB-75 CNS | % | -9.64
O=C1c2cccc3cccc(c23)C(=O)N1CCCCCCCCCCN1C(=O)c2cccc3cccc(c23)C1=O | SNB-75 CNS | % | 80.8
CC(C)CCSc1nc(Nc2ccccc2)c(C#N)c(-c2ccc(F)cc2)n1 | SNB-75 CNS | % | 42.1
c1cc(C2CCCCC2)ccc1-c1cnc2nonc2n1 | SNB-75 CNS | % | 26.6
CCN1C(=O)N(CC)C2C1NC(=O)N2/N=C/C=C/c1ccccc1 (stereo unspecified) | SNB-75 CNS | % | 30.8
COc1cc(CN(CCC(O)N2CCCC2=O)Cc2ccc3c(c2)OCO3)cc(OC)c1OC (stereo unspecified) | SNB-75 CNS | % | 93.7
N=C(N)c1ccc(NCCNc2ccc(C(=N)N)cc2)cc1 | SNB-75 CNS | % | 101
CN1C2CCC1/C(=C\c1ccc(Cl)cc1)C(=O)/C2=C/c1ccc(Cl)cc1 | SNB-75 CNS | % | 71.6
CC(C)(C)[Si](C)(C)OC1[C@@H](CNC(N)=O)O[C@@H](n2cnc3c(NC(=O)Nc4ccccc4)ncnc32)[C@H]1O[Si](C)(C)C(C)(C)C (stereo partly specified) | SNB-75 CNS | % | 73.9
CCOC(=O)N1C2CCC(C2)N1C(=O)OCC | SNB-75 CNS | % | 71.6
Cn1c(=O)c2c(nc(N/N=C/c3ccccc3Cl)n2C)n(C)c1=O | SNB-75 CNS | % | 93.6
NS(=O)(=O)c1ccc(CCn2c(SCC(=O)N/N=C/c3cc4ccccc4[nH]3)nc3ccccc3c2=O)cc1 | SNB-75 CNS | % | 80

* * *

Test system: NCI-H322M lung
Assay: NCI-60 one-dose screen, 48 h (100 = growth as untreated, 0 = no growth, -100 = all killed)
Conditions: 10 µM unless noted
The panel holds about 83,000 compounds, 20% with a hit somewhere; the sample as a whole holds those more often.
Recorded growth by entry

molecule | u | growth
CN(C)c1nc(-c2cccs2)n2nc(-c3ccc(Cl)cc3)cc2n1 | % | 11.8
CC1(C)CC(=O)c2cc3c(N)c(C(=O)Nc4ccc(Cl)cc4)sc3nc2C1 | % | 114
CC(C)CCSc1nc(Nc2ccccc2)c(C#N)c(-c2ccc(F)cc2)n1 | % | 49.8
CC(=O)NC1C(O[C@H]2C[C@H]3[C@@H]4CC=C5C[C@@H](O)CC[C@]5(C)[C@H]4CC[C@]3(C)[C@H]2[C@H](C)C(=O)CCC(C)C)OCC(O)C1O (stereo not given in full) | % | 81.3
Cc1ccc(C(CN(C)C)C(=O)c2ccccc2)cc1 (stereo not given) | % | 101
CC(=O)CC(c1ccc([N+](=O)[O-])cc1)c1c(O)c2ccccc2oc1=O (stereo not given) | % | 98.7
NC(=O)N/N=C\c1ccc([N+](=O)[O-])o1 | % | 117
COc1ccc2nc(-c3ccc(-c4noc(-c5ccc(Cl)cc5)n4)cc3)[nH]c2c1 | % | 67.5
CC(NC(=O)c1ccccc1)C(=O)Nc1ccccc1 (stereo not given) | % | 127
CS(=O)(=O)c1ccc(C(=O)N/N=C/c2ccccc2Cl)cc1 | % | 99.2

* * *

System: HCT-116 colon
Assay: NCI-60 one-dose screen, 48 h
Conditions: 10 µM unless noted
Method: Growth inhibition of the HCT-116 human tumor cell line is measured as a screen for anti-cancer activity. Cells are grown in 96 well plates and exposed to the test compound for 48 hours. Compounds are tested at a single concentration, which is 10^-5 M for most compounds. The reported endpoint is percent growth (GI% or GIPRCNT), where numbers from 0 - 100% represent growth inhibition, and numbers from -100% - 0 represent cell death. For example, a value of 40 represents 60% growth inhibition. […]
This is part of a sample that, as a whole, favours compounds with a hit. Of some 83,000 tested, about 20% had one in any assay. Calls of active or inactive are those of the source. How the source made its calls: active means growth percent below 10; inactive means the rest.
Labels: active, inactive

compound | class_label
COc1ccc(-c2cnc(-c3ccncc3-c3cccc(OC)c3)o2)cc1 | active
C=C(C)[C@@H]1CC[C@]2(C(=O)NC(COC(=O)C(Cl)Cl)(COC(=O)C(Cl)Cl)COC(=O)C(Cl)Cl)CC[C@]3(C)[C@H](CC[C@@H]4[C@@]5(C)CC[C@H](OC(C)=O)C(C)(C)[C@@H]5CC[C@]43C)[C@@H]12 | active
CCSCC1CC(O)(c2ccccc2)C(c2ccccc2)C(c2ccc(F)cc2)O1 (stereo unspecified) | active
C=C1C[C@@]2(C)C(CC[C@]3(C)C2CC=C2C4CC(C)(C)C[C@@H](OC(=O)/C(C)=C\C)[C@]4(C(=O)O)CC[C@]23C)C(C)(C)C1=O (stereo partly specified) | active
Cc1cc(-c2ccccc2)on1 | inactive
CC1(C)CN(CCNc2nccc(-c3c(-c4cccc(O)c4)nc4sccn34)n2)S(=O)(=O)N1 | inactive
CCOC(=O)C1C(=O)C=C(c2ccccc2)CC1c1sc(N(C)Cc2ccccc2)nc1Cl (stereo unspecified) | inactive
CC1=CC(=O)OC1C/C=C(\C)CCC1[C@@]2(C)CCC[C@@](C)(C(=O)O)C2CC[C@@]1(C)O (stereo partly specified) | inactive
Cc1cc(Nc2c3ccccc3nc3ccccc23)ccc1NS(C)(=O)=O | inactive
COc1ccc2nc3cc(Cl)ccc3c(NC(=O)CSc3ccc(Cl)cc3)c2c1 | active
O=C(Nc1ccccc1)c1cc2ccccc2s1 | inactive
CCN(CC)c1ccc(/C=N/NC(=O)c2ccc(S(C)(=O)=O)cc2)c(O)c1 | inactive
COc1cc2c(=O)n(CCCN(C)C)c3c4cc[nH]c4ncc3c2cc1OC | inactive
COc1ccc(CNc2c3ccccc3nc3ccc(OC)cc23)cc1 | inactive
CCOC(=O)Cn1c(-c2nonc2NC(=O)c2ccccc2F)nc2ccccc21 | inactive
O=C(O)c1cc2cc(OCc3ccccc3)ccc2[nH]1 | inactive
CCCNCCC(C)=O | inactive
CCCCCc1c(C)[nH]c(/C=C2\N=C(c3ccc[nH]3)C=C2Oc2ccc(OC)cc2)c1C | active
C[C@H](NC(=O)c1snnc1C1CC1)c1c(F)cccc1Cl | inactive
O=C1C=CN2C(=O)CC=CC2[C@@H]1O (stereo partly specified) | inactive
O=C(Nc1ccc([N+](=O)[O-])cc1)c1cc2ccccc2cc1O | active
CC(C)[C@@H]1C=C2CC[C@H]3[C@](C)(CN)CCC[C@]3(C)[C@H]2CC1 | inactive
Nc1cc(C(=O)O)cc(C(=O)O)c1 | inactive
CC(=O)Nc1c(Br)cc2c(c1Br)Cc1cc(Br)ccc1-2 | inactive
COc1ccc(-c2nc(SCCC(C)C)nc(Nc3ccc(C(=O)O)cc3)c2C#N)cc1 | inactive
Cc1ccc(NC(=O)c2cc(NCc3cc(O)ccc3O)ccc2O)cc1 | inactive
CC(C)(C)[Si](C)(C)OC1[C@@H](O[Si](C)(C)C(C)(C)C)[C@@H](CNC(=O)NC(=O)NC(=O)CCl)O[C@H]1n1cnc2c(NC(=O)Nc3ccccc3)ncnc21 (stereo partly specified) | inactive
COc1cc(OC)c(Cl)cc1N | inactive
COc1ccc2c(c1)N(Cc1ccc(Cl)cc1)CCC2N1CCCC1=O (stereo unspecified) | inactive
Cc1ccccc1C1CC(=O)c2ccccc2C1C (stereo unspecified) | inactive
CCOC(OCC)c1cnc2nc(NC(C)=O)[nH]c(=O)c2n1 | inactive
Cc1cc(N)cc(C)c1-c1c(Br)cc(N)cc1Br | inactive
COc1ccc(C(=O)N2N=C(c3ccc(F)cc3)CC2c2cn(-c3ccccc3)nc2-c2ccccc2)cc1 (stereo unspecified) | active
CCCCCCCCCCCCCC | inactive
COc1cc(C2CC(c3ccc(C)cc3)=NN2C=O)ccc1Oc1nc2c(c(=O)n(C)c(=O)n2C)n1C (stereo unspecified) | inactive
Clc1ccc(-c2nc(-c3cccs3)no2)cc1 | inactive
O=C(CSc1nnc(Cc2ccccc2Nc2c(Cl)cccc2Cl)n1-c1ccccc1)N1N=C(c2ccc3ccccc3c2)CC1c1ccc(Cl)cc1 (stereo unspecified) | inactive
N/C(=N\OC(=O)c1ccccc1)C(C(=O)NOC(=O)c1ccccc1)C1CCCCC1 (stereo unspecified) | inactive
O=C(N/N=C\c1cc(Br)ccc1O)c1ccncc1 | inactive
Cc1csc(N/N=C/c2ccncc2)n1 | inactive
CCOC(=O)c1ccc2c(c1)nc(-c1ccc(Cl)cc1)n2-c1cc(C(C)(C)C)[nH]n1 | active
